Values from patent US9283219B2

# EXPERIMENT DESCRIPTION: Permeability studies, Franz diffusion cells
# Type: in vitro ADME
# ASSAY SETUP: pig, pH 8, pH 8.0 + 1% glycerin monostearate
EXPERIMENTAL READOUT: Papp at 120 min

Would you mind telling me what Papp at 120 min value was observed for CN1CCc2cccc3c2[C@H]1Cc1ccc(O)c(O)c1-3 [apomorphine] ?
2.34 ×10⁻⁶ cm/s

====

# EXPERIMENT DESCRIPTION: Permeability studies, Franz diffusion cells
# Assay type: in vitro ADME
# ASSAY SETUP: pig, pH 8, pH 8.0 + 1% magnesium stearate
# From the text: Freshly collected buccal tissues were obtained from pig and mucosa's were isolated carefully. The prepared mucosa membranes with approximate size of 4 cm^2 were mounted between donor and receiver chambers of Franz diffusion cells with available diffusion area of 1.77 cm^2. Test treatments and controls were run in quadruplicate. […] The concentration of each analyte was quantified by LC-MS/MS (Appendix I). […]
EXPERIMENTAL READOUT: Papp at 120 min (×10⁻⁶ cm/s)
Give the quantity in ×10⁻⁶ cm/s, number only.

Recorded Papp at 120 min for CN1CCc2cccc3c2[C@H]1Cc1ccc(O)c(O)c1-3 [apomorphine] , please?
0.3
